Test target: Fibroblast growth factor receptor (Homo sapiens, UniProt P22607+P11362+P22455+P21802)
Assay text: Inhibitory concentration of compound against human fibroblast growth factor receptor
Type: protein assay
Label key: Met means IC50 under 0.1 µM; Not met means IC50 of 0.1 µM or more.

Illustrative cases are given below, each with its answer.
Substance smiles | Test target | Label
CN1CCN(c2ccc(Nc3ncc4cc(-c5c(Cl)cccc5Cl)c(=O)n(C)c4n3)cc2)CC1 | Fibroblast growth factor receptor (Homo sapiens, UniProt P22607+P11362+P22455+P21802) | Met
Cn1c(=O)c(-c2c(Cl)cccc2Cl)cc2cnc(Nc3ccc(CC(=O)O)cc3)nc21 | Fibroblast growth factor receptor (Homo sapiens, UniProt P22607+P11362+P22455+P21802) | Met
CN(C)c1cc(-c2cc3cnc(N)nc3nc2NC(=O)NC(C)(C)C)cc(N(C)C)c1 | Fibroblast growth factor receptor (Homo sapiens, UniProt P22607+P11362+P22455+P21802) | Not met
CCOc1cc(OCC)cc(-c2cc3cnc(N)nc3nc2NC(=O)NC(C)(C)C)c1 | Fibroblast growth factor receptor (Homo sapiens, UniProt P22607+P11362+P22455+P21802) | Not met
CC(C)(C)NC(=O)Nc1nc2nc(N)ncc2cc1-c1cc(C(F)(F)F)cc(C(F)(F)F)c1 | Fibroblast growth factor receptor (Homo sapiens, UniProt P22607+P11362+P22455+P21802) | Not met

Input line: Bench note: check whether Cn1c(=O)c(-c2c(Cl)cccc2Cl)cc2cncnc21 shows IC50 below 0.1 µM
Output line: Not met

Input line: Next entry: CN(C)c1ncc2cc(-c3c(Cl)cccc3Cl)c(=O)n(C)c2n1
Output line: Not met

Input line: Next entry: Cc1ncc2cc(-c3c(Cl)cccc3Cl)c(=O)n(C)c2n1
Output line: Not met

Input line: Next entry: CN1CCN(CCCNc2ncc3cc(-c4c(Cl)cccc4Cl)c(=O)n(C)c3n2)CC1
Output line: Not met

Input line: Next entry: COc1cc(OC)cc(-c2cc3cnc(N)nc3n(C)c2=O)c1
Output line: Not met
